Taken from patent US11401254B2.

EXPERIMENTAL_DETAILS: Log P by HPLC on reversed phase columns (EEC directive 79/831 Annex V.A8)
Format: physicochemical
EXPERIMENTAL_PARAMETERS: method [a]: LC-UV, acidic range, 0.1% formic acid in water and acetonitrile as eluent
Quick reference for LogP among some compounds

Worked cases, LogP given:
[
  {
    "COMPOUND": "CC[C@H](C)[C@H](NC(=O)c1sc(Br)c(Br)c1C)C(=O)O [I.89]",
    "LogP": "3.37^[a]"
  },
  {
    "COMPOUND": "CCOC(=O)CNC(=O)c1sc(Br)c(Br)c1I [VIa.10]",
    "LogP": "3.35^[a]"
  },
  {
    "COMPOUND": "Cc1c(C(=O)NC(C(=O)OC2CCC2)C(C)C)sc(Br)c1Br (stereo not shown) [I.53]",
    "LogP": "4.98^[a]"
  }
]

Summary for this compound, CCOC(=O)[C@@H](C)NC(=O)c1sc(Cl)c(Cl)c1C [I.42] : LogP is 3.31^[a]

Short answer for COC(=O)C(CCSC)NC(=O)c1sc(Br)c(Br)c1C (stereo not shown) [I.70] : LogP was 3.69^[a]

Entry CCOC(=O)C(Cc1ccccc1)NC(=O)c1sc(Cl)c(Cl)c1C (stereo not shown) [I.38] , LogP reported as 4.46^[a]

compound CCOC(=O)C(Cc1ccccc1)NC(=O)c1sc(Br)c(Br)c1C (stereo not shown) [I.65] , LogP observed: 4.59^[a]
